B1: CCND2 (parent)
chain: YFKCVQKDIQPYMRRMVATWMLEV

- Variants of: B1
- experiment summary: protein stability index of a GFP-peptide fusion (GPS, HEK-293T) (PSI 1-6); higher = more stable;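 also: lentivirally expressed fusions sorted by FACS into six bins by GFP to DsRed ratio, PSI derived from sequencing read proportions per bin multiplied by bin number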
- cond: c terminus: a fixed tail appended
Exercise: state measured protein stability index for each of the variants provided.
Lab note: record the figure alone, no unit after it.

protein stability index in this record for IFKCVQKDIQPYMRRMVATWMLEV [Y1I] : 2.47

protein stability index in this record for YFKCTQKDIQPYMRRMVATWMLEV [V5T] : 3.62

protein stability index in this record for YFKCVQKDIQPYMRRMVAIWMLEV [T19I] : 2.75

protein stability index in this record for YFKEVQKDIQPYMRRMVATWMLEV [C4E] : 1.28

protein stability index in this record for YFKCYQKDIQPYMRRMVATWMLEV [V5Y] : 4

protein stability index in this record for YFKCVQKDIQEYMRRMVATWMLEV [P11E] : 2.85

protein stability index in this record for YFKCVQKDIQPYMRRMVATWMLEK [V24K] : 1.63

protein stability index in this record for DFKCVQKDIQPYMRRMVATWMLEV [Y1D] : 2.58

protein stability index in this record for YFKCVQKDIQPYQRRMVATWMLEV [M13Q] : 2.65

protein stability index in this record for YFKCVQKDIQPYMRRMVANWMLEV [T19N] : 3.9

protein stability index in this record for YFKCVQKDIQPYMGRMVATWMLEV [R14G] : 2.28

protein stability index in this record for YFKCVQKDIQPYMRRVVATWMLEV [M16V] : 2.3

protein stability index in this record for YFKMVQKDIQPYMRRMVATWMLEV [C4M] : 2.81

protein stability index in this record for YFKCVQKDIKPYMRRMVATWMLEV [Q10K] : 3.06

protein stability index in this record for HFKCVQKDIQPYMRRMVATWMLEV [Y1H] : 3.71

protein stability index in this record for YFKCVQKDIQPPMRRMVATWMLEV [Y12P] : 1.89

protein stability index in this record for YFKCVQKDIQPHMRRMVATWMLEV [Y12H] : 2.54

protein stability index in this record for YFKCVQKDIQPYMRRMVARWMLEV [T19R] : 1.58

protein stability index in this record for YFKCVQKDIQVYMRRMVATWMLEV [P11V] : 2.82

protein stability index in this record for YFKCVQKDIQPYMRRMVATKMLEV [W20K] : 1.84

protein stability index in this record for YFKCVQKDIQHYMRRMVATWMLEV [P11H] : 4.06

protein stability index in this record for YDKCVQKDIQPYMRRMVATWMLEV [F2D] : 2.15

protein stability index in this record for YFKCVQKDIQPYMRDMVATWMLEV [R15D] : 3.42

protein stability index in this record for YFKCVQEDIQPYMRRMVATWMLEV [K7E] : 4.8

protein stability index in this record for YFGCVQKDIQPYMRRMVATWMLEV [K3G] : 1.86

protein stability index in this record for YFKCMQKDIQPYMRRMVATWMLEV [V5M] : 2.48

These entries and their values trace back to the supplement of paper PMC10567573.
